test system: Leishmania amazonensis; experiment: Antileishmanial activity against Leishmania amazonensis MHOM/BR/75-josefa in mouse peritoneal macrophages at 80 ug/mL after 48 hrs relative to control; assay type: functional
Property Label: inhibition at 80 µg/mL

Known results for compounds:
# Compound, inhibition at 80 µg/mL
measured = [
    ("CC(C(=O)c1ccccc1)[S+]([O-])c1ccc(Cl)cc1 (configuration not stated)", "20.7%"),
    ("CC(Sc1ccc(N)cc1)C(=O)c1ccccc1 (configuration not stated)", "0%"),
    ("O=C(CSc1ccc(Cl)cc1)c1ccccc1", "38.8%"),
    ("COc1ccc(C(=O)C(C)Sc2ccc(Cl)cc2)cc1OC (configuration not stated)", "63.3%"),
    ("CC(Sc1ccc(Cl)cc1)C(=O)c1ccccc1 (configuration not stated)", "100%"),
    ("CC(C(=O)c1ccccc1)S(=O)(=O)c1ccc(Cl)cc1 (configuration not stated)", "0%"),
    ("COc1ccc([C@@H](O)[C@H](C)Sc2ccc(C)cc2)cc1OC (relative stereo)", "40.6%"),
    ("O=C(COc1ccccc1)c1ccccc1", "44%"),
    ("CC(=O)O[C@H](c1ccccc1)[C@H](C)Sc1ccc(Cl)cc1 (relative stereo)", "0%"),
    ("COc1ccc(C(=O)C(C)Sc2ccc(C)cc2)cc1OC (configuration not stated)", "100%"),
]

Q: Can you look up the measured inhibition at 80 µg/mL of CC(Sc1ccccc1)C(=O)c1ccccc1 (configuration not stated) for me?
Ans: 78.1%

Q: Moving on to the next compound: CSc1ccccc1OCC(=O)c1ccc(Cl)cc1
Ans: 8.8%

---

test system: Leishmania amazonensis; assay: Antileishmanial activity against Leishmania amazonensis MHOM/BR/75-josefa in mouse peritoneal macrophages at 80 ug/mL after 48 hrs relative to control; assay type: functional
Property Label: inhibition at 80 µg/mL (%)
Quick reminder: number only, in %, skip the unit.

# Compound, inhibition at 80 µg/mL (%)
measured = [
    ("COc1ccc(C(=O)C(C)S(=O)(=O)c2ccc(C)cc2)cc1OC (configuration not stated)", 7),
    ("COc1ccc([C@@H](O)[C@H](C)Sc2ccc(Cl)cc2)cc1OC (relative stereo)", 36.1),
]

Q: Can you look up the measured inhibition at 80 µg/mL of COc1ccc(C(=O)C(C)Oc2c(OC)cccc2OC)cc1OC (configuration not stated) for me?
Ans: 37.9

Q: Moving on to the next compound: C/C=C/c1ccc(OC(C)C(=O)c2ccc(OC)c(OC)c2)c(OC)c1 (configuration not stated)
Ans: 34.2

Q: Moving on to the next compound: C[C@H](Sc1ccc(Cl)cc1)[C@H](O)c1ccccc1 (relative stereo)
Ans: 50.6

Q: Moving on to the next compound: COc1ccc(C(=O)COc2ccc(Cl)cc2)cc1OC
Ans: 17.7

Q: Moving on to the next compound: O=C(CSc1ccc(Cl)cc1)c1ccc(Cl)cc1
Ans: 50.5
